- Tested on: Molm-14
- METHOD SUMMARY: MTT assay, cell number relative to vehicle
- Format: cell-based
- CONDITION SET: Homo sapiens, Molm-14 (MLL-AF9), Biphenotypic Leukemia with Myeloid Features, 48 hours
RESULT TYPE: IC50 (nM)
Numbers only, in nM.

Would you mind telling me what IC50 value was observed for Nc1ccccc1NC(=O)c1ccc(CNC(=O)OCc2cccnc2)cc1 [entinostat] ? 839

###

- Test system: RS4; 11
- METHOD SUMMARY: MTT assay, cell number relative to vehicle
- Type: cell-based
- CONDITION SET: Homo sapiens, 11 (MLL-AF4), Biphenotypic Leukemia with Lymphoblastic Features, 48 hours
RESULT TYPE: IC50 (nM)
Answers are plain numbers, in nM.

Recorded IC50 for Nc1ccccc1NC(=O)c1ccc(CNC(=O)OCc2cccnc2)cc1 [entinostat] , please? 2420

###

- System: RCH-AcV
- METHOD SUMMARY: MTT assay, cell number relative to vehicle
- Type: cell-based
- CONDITION SET: RCH-AcV (E2A-PBX1), B Cell Lymphoblastic Leukemia, 48 hours
RESULT TYPE: IC50 (µM)
Answers are plain numbers, in µM.

Report IC50 for Nc1ccccc1NC(=O)c1ccc(CNC(=O)OCc2cccnc2)cc1 please. 0.723

###

- System: CEM
- METHOD SUMMARY: MTT assay, cell number relative to vehicle
- Format: cell-based
- CONDITION SET: Homo sapiens, CCRF-CEM, T Cell Lymphoblastic Leukemia, 48 hours
RESULT TYPE: pIC50
Give bare numbers, as −log10 of the molar value.

Quick one: pIC50 for Nc1ccccc1NC(=O)c1ccc(CNC(=O)OCc2cccnc2)cc1 ? 5.89

###

- Test system: Molt-4
- METHOD SUMMARY: MTT assay, cell number relative to vehicle
- Type: cell-based
- CONDITION SET: Homo sapiens, Molt-4, T Cell Lymphoblastic Leukemia, 48 hours
RESULT TYPE: pIC50
Answers are plain numbers, as −log10 of the molar value.

Data request, read-out pIC50, for Nc1ccccc1NC(=O)c1ccc(CNC(=O)OCc2cccnc2)cc1 6.14

###

- Test system: HEL
- METHOD SUMMARY: MTT assay, cell number relative to vehicle
- Assay type: cell-based
- CONDITION SET: Homo sapiens, Myeloid Leukemia, 48 hours
RESULT TYPE: pIC50
Give bare numbers, as −log10 of the molar value.

Item Nc1ccccc1NC(=O)c1ccc(CNC(=O)OCc2cccnc2)cc1 has what recorded pIC50? 6.02

###

- Test system: REH
- METHOD SUMMARY: MTT assay, cell number relative to vehicle
- Assay type: cell-based
- CONDITION SET: Homo sapiens, REH (TEL-AML1), B Cell Lymphoblastic Leukemia, 48 hours
RESULT TYPE: pIC50
Answers are plain numbers, as −log10 of the molar value.

Give REH pIC50 for Nc1ccccc1NC(=O)c1ccc(CNC(=O)OCc2cccnc2)cc1 5.82

###

- Tested on: NOMO-1
- METHOD SUMMARY: MTT assay, cell number relative to vehicle
- Assay type: cell-based
- CONDITION SET: Homo sapiens, NOMO-1 (MLL-AF9), Biphenotypic Leukemia with Myeloid Features, 48 hours
RESULT TYPE: IC50 (nM)
One number for each entry, in nM.

Requested read-out IC50, target or system NOMO-1, entry Nc1ccccc1NC(=O)c1ccc(CNC(=O)OCc2cccnc2)cc1 [entinostat] 587
